Data credit: patent US12122778B2

Molecular target: PKR(R510Q) (Homo sapiens, UniProt P30613, R510Q)
Sequence (P30613 whole entry R510Q): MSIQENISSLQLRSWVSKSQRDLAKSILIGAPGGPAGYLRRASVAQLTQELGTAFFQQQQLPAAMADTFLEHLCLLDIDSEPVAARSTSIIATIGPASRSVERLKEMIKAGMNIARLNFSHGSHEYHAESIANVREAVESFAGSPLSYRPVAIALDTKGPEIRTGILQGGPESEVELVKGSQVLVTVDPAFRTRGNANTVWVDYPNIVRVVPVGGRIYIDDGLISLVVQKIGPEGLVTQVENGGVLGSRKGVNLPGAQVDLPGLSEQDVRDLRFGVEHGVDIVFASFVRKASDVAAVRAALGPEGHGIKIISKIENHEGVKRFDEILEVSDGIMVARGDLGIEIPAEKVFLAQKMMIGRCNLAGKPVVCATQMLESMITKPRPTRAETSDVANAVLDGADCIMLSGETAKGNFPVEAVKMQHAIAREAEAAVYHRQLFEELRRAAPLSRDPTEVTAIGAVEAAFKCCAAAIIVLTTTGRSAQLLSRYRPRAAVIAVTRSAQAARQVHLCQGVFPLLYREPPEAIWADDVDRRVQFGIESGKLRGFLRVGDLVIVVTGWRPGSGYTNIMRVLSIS
Assay: Luminescence Biochemical Assay (Kinase Glo Plus), PKR R510Q mutant
Conditions: without FBP, 1.54 μM compound, read-out: AC50 LUM KGP woFBP % Fold@1.54 μM mean
Exercise: for every item that follows, state its recorded activation at 1.54 µM.

Prompt: Name the recorded activation at 1.54 µM of the molecule listed here: O=C([C@H](O)c1ccc2c(c1)NCCO2)N1CC2=C(C1)CN(S(=O)(=O)c1ccc(OC(F)F)cc1)C2 (single isomer, unassigned)
Response: 75 to 250%

Prompt: Give activation at 1.54 µM for `O=C(NCc1cccnc1)N1CC2=C(C1)CN(S(=O)(=O)c1ccc3ncsc3c1)C2`
Response: 75 to 250%

Prompt: For the molecule O=C(OCC1CCOC1)N1CC2=C(C1)CN(S(=O)(=O)c1ccc(OC(F)F)cc1)C2 (stereo not shown) , report activation at 1.54 µM.
Response: 75 to 250%

Prompt: Complete the entry with activation at 1.54 µM for `O=C(Cc1cccnc1)N1CC2=C(C1)CN(S(=O)(=O)c1ccc(OC(F)F)cc1)C2`
Response: 250 to 50000%

---

For each of the compounds below, state its Emax.
Target: PKR(wt) (Homo sapiens, UniProt P30613)
Sequence (P30613 whole entry): as the sequence (P30613 whole entry R510Q) above, with Q510R counted along it
Experiment: Luminescence Biochemical Assay (Kinase Glo Plus), wild type PKR
Details: without FBP, read-out: AC50 LUM KGP woFBP MAX % FOLD mean

Prompt: Query Emax for O=C(NCc1ccccc1F)N1CC2=C(C1)CN(S(=O)(=O)c1ccc(C(F)(F)F)nc1)C2 [Example 21-40]
Response: 75 to 250%

Prompt: Note down Emax recorded for O=C(NCc1cccnc1)N1CC2=C(C1)CN(S(=O)(=O)c1ccc3ncsc3c1)C2 [Example 20-56]
Response: 250 to 500%

Prompt: Given the compound COc1ccc(CNC(=O)N2CC3=C(C2)CN(S(=O)(=O)c2ccc(OC(F)F)cc2)C3)cc1 [Example 21-10] , write its reported Emax.
Response: 250 to 500%

Prompt: Return the recorded Emax value; entry: COc1ccc(CNC(=O)N2CC3=C(C2)CN(S(=O)(=O)c2cccnc2)C3)cc1 [Example 20-2]
Response: 250 to 500%

Prompt: Complete the entry with Emax for O=C(c1cnc(C(F)(F)F)nc1)N1CC2=C(C1)CN(S(=O)(=O)c1ccc3occc3c1)C2 [Example 18-86]
Response: 75 to 250%

Prompt: Provide one value: measured Emax of O=C([C@H](O)c1ccc2c(c1)NCCO2)N1CC2=C(C1)CN(S(=O)(=O)c1ccc(OC(F)F)cc1)C2 (single isomer, unassigned) [Example 9-4]
Response: 250 to 500%

Prompt: Answer with the recorded Emax of O=C(CCC(F)F)N1CC2=C(C1)CN(S(=O)(=O)c1ccc3occc3c1)C2 [Example 1-2] only.
Response: 250 to 500%

Prompt: Query Emax for O=C(NCc1cccc(F)c1)N1CC2=C(C1)CN(S(=O)(=O)c1ccc(OC(F)F)cc1)C2 [Example 21-14]
Response: 250 to 500%

Prompt: Item Cc1ccc(S(=O)(=O)N2CC3=C(CN(C(=O)[C@H](O)c4ccccc4)C3)C2)cc1F [Example 18-51] : provide Emax
Response: 75 to 250%

---

Answer each item with its documented AC50.
Target: PKR(G332S) (Homo sapiens, UniProt P30613, G332S)
Sequence (P30613 whole entry G332S): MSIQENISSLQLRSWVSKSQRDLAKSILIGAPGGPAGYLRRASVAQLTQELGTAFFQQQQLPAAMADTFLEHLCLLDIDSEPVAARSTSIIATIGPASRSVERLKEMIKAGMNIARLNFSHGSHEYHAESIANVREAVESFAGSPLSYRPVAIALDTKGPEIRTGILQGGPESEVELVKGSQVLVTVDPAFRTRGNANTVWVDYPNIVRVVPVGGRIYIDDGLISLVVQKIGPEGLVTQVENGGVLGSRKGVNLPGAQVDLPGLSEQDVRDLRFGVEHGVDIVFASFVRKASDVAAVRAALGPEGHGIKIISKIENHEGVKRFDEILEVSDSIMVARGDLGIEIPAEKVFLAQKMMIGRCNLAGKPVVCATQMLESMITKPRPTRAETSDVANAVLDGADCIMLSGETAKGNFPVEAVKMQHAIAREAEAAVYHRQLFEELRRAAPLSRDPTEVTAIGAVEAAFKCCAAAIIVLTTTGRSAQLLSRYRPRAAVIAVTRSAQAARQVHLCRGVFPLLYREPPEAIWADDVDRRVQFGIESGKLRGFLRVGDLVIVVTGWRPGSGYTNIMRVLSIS
Assay: Luminescence Biochemical Assay (Kinase Glo Plus), PKR G332S mutant
Conditions: with FBP, read-out: AC50 LUM KGP FBP AC50 μM gmean (column A)

Prompt: State its AC50 for this molecule: O=C([C@H]1CCCO1)N1CC2=C(C1)CN(S(=O)(=O)c1cccnc1)C2 [Example 18-59]
Response: 1 to 40 µM

Prompt: Output measured AC50 for this item: O=C([C@H](O)c1ccc(F)cc1)N1CC2=C(C1)CN(S(=O)(=O)c1ccccn1)C2 [Example 18-63]
Response: 1 to 40 µM

Prompt: Given Cc1cccc(S(=O)(=O)N2CC3=C(CN(C(=O)NCc4ccccc4F)C3)C2)n1 [Example 15-1] , respond with its AC50.
Response: 0.1 to 1 µM

Prompt: Give the reported value of AC50 for this record: Cc1nc(S(=O)(=O)N2CC3=C(CN(C(=O)C(C)n4cnc5ccccc54)C3)C2)cn1C (centres unmarked) [Example 19-9]
Response: 0.1 to 1 µM

Prompt: Consider the molecule Cc1ccc(CC(=O)N2CC3=C(C2)CN(S(=O)(=O)c2ccc(OC(F)F)cc2)C3)cn1 [Example 18-30] and give its recorded AC50.
Response: ≤ 0.1 µM

Prompt: Quick one: give measured AC50 for O=C(NCc1ccc(F)cc1)N1CC2=C(C1)CN(S(=O)(=O)c1ccc(OC(F)F)cc1)C2 [Example 21-13]
Response: ≤ 0.1 µM

Prompt: Give the measured AC50 for O=C(C(O)c1cccc(F)c1)N1CC2=C(C1)CN(S(=O)(=O)c1ccc(OC(F)F)cc1)C2 (centres unmarked) [Example 18-22]
Response: ≤ 0.1 µM

Prompt: Give the reported AC50 for this molecule. COCCNC(=O)N1CC2=C(C1)CN(S(=O)(=O)c1ccc3c(c1)N(C)CCO3)C2 [Example 21-24]
Response: 0.1 to 1 µM
